COND: in isopropanol, 318.15 K
MEASURE: solubility (mole fraction)

>>> number("Nc1ccc(S(=O)(=O)Nc2ncccn2)cc1")
0.000143

* * *

COND: in isopropanol, 303.15 K
MEASURE: solubility (mole fraction)

>>> number("Nc1ccc(S(=O)(=O)Nc2ncccn2)cc1")
0.000103

* * *

COND: in isopropanol, 298.15 K
MEASURE: solubility (mole fraction)

>>> result("Nc1ccc(S(=O)(=O)Nc2ncccn2)cc1")
"8.18e-05"

* * *

COND: in isopropanol, 294.15 K
MEASURE: solubility (mole fraction)

>>> number("Nc1ccc(S(=O)(=O)Nc2ncccn2)cc1")
"6.53e-05"
